Values compiled from ChEMBL document CHEMBL4715753.

target: Growth hormone secretagogue receptor type 1 (Homo sapiens, UniProt Q92847); assay: Displacement of [125I-His9]-ghrelin from GHS-R1a (unknown origin) expressed in human HEK293 cells incubated for 20 mins by gamma scintillation counting method
Sequence (Q92847 whole entry): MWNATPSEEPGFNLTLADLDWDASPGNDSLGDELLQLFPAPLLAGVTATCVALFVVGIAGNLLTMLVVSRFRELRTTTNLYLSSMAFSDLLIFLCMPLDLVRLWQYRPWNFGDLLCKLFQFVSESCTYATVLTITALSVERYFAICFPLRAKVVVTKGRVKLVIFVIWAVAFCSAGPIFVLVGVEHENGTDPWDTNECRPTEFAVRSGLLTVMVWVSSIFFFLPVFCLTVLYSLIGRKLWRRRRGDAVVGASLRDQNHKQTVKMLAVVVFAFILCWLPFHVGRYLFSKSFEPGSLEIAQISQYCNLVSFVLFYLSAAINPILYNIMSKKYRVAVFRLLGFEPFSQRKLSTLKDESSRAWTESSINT
measured.metric: pIC50
In plain terms, pIC50 is the concentration in mol/L turned into minus its base-10 logarithm.

Provide pIC50, tested on Growth hormone secretagogue receptor type 1 (Homo sapiens, UniProt Q92847), for NCCCC[C@H](NC(=O)[C@H](Cc1ccncc1)NC(=O)[C@@H](Cc1ccc2ccccc2c1)NC(=O)[C@@H](Cc1ccc2ccccc2c1)NC(=O)C1CCNCC1)C(N)=O .
7.60
